# Assay Notes: Rectal ointment of AB-PC.Na with enamine derivative, blood concentration
# Assay type: in vivo, rabbit
# Condition Summary: rectal ointment AB-PC.Na 10%, enamine derivative 10%, dose 15 mg AB-PC.Na/kg
Measure: AUC (µg·min/mL)

{"columns": ["Chemical Smiles", "Readout Unit", "Value Reported"],
 "data": [
  ["CCOC(=O)C=C(C)N[C@@H](C(=O)[O-])c1ccccc1.[Na+]", "µg·min/mL", 270]
]}

P: CCOC(=O)C=C(C)N1CCC[C@H]1C(=O)[O-].[Na+]
Q: CCOC(=O)C=C(C)NCCS(=O)(=O)[O-].[Na+]
[ask] Lower value of AUC belongs to which: P or Q ? Label of pick, please.
[reply] P
(P: 108 µg·min/mL, Q: 239 µg·min/mL)

----------
# Assay Notes: Stability in aqueous solution (half-life of enamine derivatives)
# Format: physicochemical
# Condition Summary: pH 7.4 phosphate buffer, μ 0.15, 25° C., UV absorption spectrometry; "stable" = enamine structure retained even after 6 hours
Measure: half-life t 0.5 (min)

P: CCOC(=O)C=C(C)NCC(=O)NCC(=O)[O-].[Na+] [Compound 15]
Q: CC(N[C@@H](C(=O)[O-])c1ccccc1)=C1CCOC1=O.[Na+] [Compound 6]
R: CCOC(=O)C=C(C)NCCCC(=O)[O-].[Na+] [Compound 2]
[ask] Rank the listed molecules according to half-life t 0.5, from the largest value downward. Put the labels in the requested order and list them out.
[reply] Q, P, R

----------
# Assay Notes: Rectal ointment of CET-Na with enamine derivative, blood concentration
# Format: in vivo, rabbit
# Condition Summary: CET; rectal ointment CET.Na 20%, enamine derivative 10%; dose 50 mg CET.Na/kg
Measure: AUC (µg·min/mL)

{"columns": ["Chemical Smiles", "Value Reported"],
 "data": [
  ["CCOC(=O)C(=CN[C@@H](C(=O)[O-])c1ccccc1)C(=O)OCC.[Na+]", 306]
]}

A: CC(=O)C=C(C)N[C@@H](C(=O)[O-])c1ccccc1.[Na+]
B: CCOC(=O)C=C(C)NCC(=O)NCC(=O)[O-].[Na+]
C: CCOC(=O)C=C(C)NCCCC[C@H](NC(C)=CC(=O)OCC)C(=O)[O-].[Na+]
[ask] Arrange these molecules by their AUC, starting with the largest number. Respond with an ordered listing of the labels, as requested.
[reply] A, C, B
(A: 568 µg·min/mL, C: 396 µg·min/mL, B: 102 µg·min/mL)

----------
# Assay Notes: Rectal ointment of AB-PC.Na with enamine derivative, blood concentration
# Assay type: in vivo, rabbit
# Condition Summary: rectal ointment AB-PC.Na 10%, enamine derivative 10%, dose 15 mg AB-PC.Na/kg
Measure: Peak blood concentration (µg/mL)

{"columns": ["Chemical Smiles", "Readout Unit", "Peak blood concentration"],
 "data": [
  ["CCOC(=O)C(=CN[C@@H](C(=O)[O-])c1ccccc1)C(=O)OCC.[Na+]", "µg/mL", 4.7],
  ["CCOC(=O)C=C(C)N[C@@H](C(=O)[O-])c1ccccc1.[Na+]", "µg/mL", 4.8]
]}

I: CCOC(=O)C=C(C)NCCS(=O)(=O)[O-].[Na+]
II: CCOC(=O)C=C(C)N1CCC[C@H]1C(=O)[O-].[Na+]
[ask] Hello, I am sorting some records. Could you say if I or II has the smaller Peak blood concentration value? Please indicate the selected item by its label.
[reply] II
(II: 2.6 µg/mL, I: 5.9 µg/mL)

----------
# Assay Notes: Rectal insulin suppositories (Recipes 21-34), glucose response
# Type: in vivo
# Condition Summary: rabbit; rectal suppository 6 I.U. insulin; enamine derivative 1%
Measure: Time course: Onset (min)
Numeric answer only, unit min assumed.

Known Time course: Onset results, listed for orientation:
{"columns": ["Compound", "Value Reported"],
 "data": [
  ["CCOC(=O)C=C(C)NC(C(=O)[O-])c1ccccc1.[Na+] (racemic)", 15],
  ["CCOC(=O)C=C(C)N[C@@H](C)C(=O)[O-].[Na+]", 30],
  ["CCOC(=O)C=C(C)NC(C)C(=O)[O-].[Na+] (racemic)", 30]
]}

In the following, a different compound is considered.
[ask] Recorded Time course: Onset of `CCOC(=O)C=C(C)N[C@@H](Cc1ccccc1)C(=O)[O-].[Na+]` , please.
[reply] 30

----------
# Assay Notes: Rectal ointment of CET-Na with enamine derivative, blood concentration
# Assay type: in vivo, rabbit
# Condition Summary: CET; rectal ointment CET.Na 20%, enamine derivative 10%; dose 50 mg CET.Na/kg
Measure: AUC (µg·min/mL)

{"columns": ["Chemical Smiles", "AUC (µg·min/mL)"],
 "data": [
  ["CCOC(=O)C=C(C)NCCCC(=O)[O-].[Na+]", 315]
]}

a: CCOC(=O)C=C(C)N[C@@H](C(=O)OC)c1ccccc1
b: CCOC(=O)C=C(C)N1CCC[C@H]1C(=O)[O-].[Na+]
c: CCOC(=O)C=C(C)N[C@@H](C(=O)[O-])c1ccccc1.[Na+]
[ask] Ranking field: AUC; order: falling. Use the labels to give the ranking in the order requested.
[reply] c, a, b
(c: 445 µg·min/mL, a: 49 µg·min/mL, b: 25 µg·min/mL)

----------
# Assay Notes: Stability in aqueous solution (half-life of enamine derivatives)
# Assay type: physicochemical
# Condition Summary: pH 7.4 phosphate buffer, μ 0.15, 25° C., UV absorption spectrometry; "stable" = enamine structure retained even after 6 hours
Measure: half-life t 0.5 (min)

Solved entries:
{"columns": ["Compound", "Readout Unit", "Value Reported"],
 "data": [
  ["CCOC(=O)C=C(C)NCCCC[C@H](NC(C)=CC(=O)OCC)C(=O)[O-].[Na+]", "min", 22.9],
  ["CCOC(=O)C=C(C)NC(Cc1ccccc1)C(=O)[O-].[Na+] (racemic)", "min", 15.7]
]}

A: CCOC(=O)C=C(C)N1CCC[C@H]1C(=O)[O-].[Na+]
B: CCOC(=O)C=C(C)NCCS(=O)(=O)[O-].[Na+]
[ask] Could you determine which record has the numerically smaller half-life t 0.5? Candidates: A and B Lab log: write the label of the selected item as the result.
[reply] A

----------
# Assay Notes: Rectal insulin suppositories (Recipes 35-41), glucose response
# Type: in vivo
# Condition Summary: rabbit 2.5-3kg; rectal suppository 6 I.U. insulin; enamine derivative 0.025g (5%)
Measure: Time course: Lowest level

{"columns": ["Compound", "Value Reported"],
 "data": [
  ["CC(=CC(=O)OCC(O)CO)NCC(=O)[O-].[Na+] (stereo not shown)", "45 to 60 min"],
  ["CC(=CC(=O)NCCO)N[C@@H](Cc1ccccc1)C(=O)[O-].[Na+]", "30 to 60 min"],
  ["CCOC(=O)C(C)OC(=O)C=C(C)NCC(=O)[O-].[Na+] (stereo not shown)", "45 to 60 min"],
  ["CCOC(=O)C(C)OC(=O)C=C(C)NC(C)C(=O)[O-].[Na+] (racemic)", "45 to 60 min"],
  ["CCOC(=O)C(C)OC(=O)C=C(C)N[C@@H](Cc1ccccc1)C(=O)[O-].[Na+] (stereo partly shown)", "45 to 60 min"]
]}

[ask] Time course: Lowest level for CC(=CC(=O)OC(C)C(=O)O)N[C@@H](CCCNC(=N)N)C(=O)O (stereo partly shown) ?
[reply] 30 to 60 min

[ask] Consider the compound `CCOC(=O)CNC(=O)C=C(C)N[C@@H](Cc1ccccc1)C(=O)[O-].[Na+]` and give its measured Time course: Lowest level.
[reply] 30 to 60 min

----------
# Assay Notes: Rectal insulin suppositories (Recipes 35-41), glucose response
# Assay type: in vivo
# Condition Summary: rabbit 2.5-3kg; rectal suppository 6 I.U. insulin; enamine derivative 0.025g (5%)
Measure: Time course: Return to pre-medication level (min)
Entry rule: numbers only, all in min.

Known Time course: Return to pre-medication level results, listed for orientation:
{"columns": ["Compound", "Readout Unit", "Value Reported"],
 "data": [
  ["CC(=CC(=O)NCCO)N[C@@H](Cc1ccccc1)C(=O)[O-].[Na+]", "min", 120],
  ["CCOC(=O)C(C)OC(=O)C=C(C)NC(C)C(=O)[O-].[Na+] (racemic)", "min", 150]
]}

Attention now turns to another entry.
[ask] Reported Time course: Return to pre-medication level, compound CC(=CC(=O)OC(C)C(=O)O)N[C@@H](CCCNC(=N)N)C(=O)O (stereo partly shown) : ____
[reply] 120

----------
# Assay Notes: Rectal ointment of CET-Na with enamine derivative, blood concentration
# Assay type: in vivo, rabbit
# Condition Summary: CET; rectal ointment CET.Na 20%, enamine derivative 10%; dose 50 mg CET.Na/kg
Measure: Peak blood concentration (µg/mL)

See these solved cases before continuing.
{"columns": ["Chemical Smiles", "Peak blood concentration [µg/mL]"],
 "data": [
  ["CC(=O)C=C(C)N[C@@H](C(=O)[O-])c1ccccc1.[Na+]", 11.0],
  ["CCOC(=O)C=C(C)NCCS(=O)(=O)[O-].[Na+]", 7.8],
  ["CCOC(=O)C=C(C)NCCCC(=O)[O-].[Na+]", 6.3],
  ["CCOC(=O)C=C(C)N1CCC[C@H]1C(=O)[O-].[Na+]", 2.5],
  ["CCOC(=O)C=C(C)NCCCC[C@H](NC(C)=CC(=O)OCC)C(=O)[O-].[Na+]", 8.7]
]}

1: CCOC(=O)C(=CN[C@@H](C(=O)[O-])c1ccccc1)C(=O)OCC.[Na+]
2: CCOC(=O)C=C(C)NCC(=O)NCC(=O)[O-].[Na+]
3: CCOC(=O)C=C(C)N[C@@H](C(=O)[O-])c1ccccc1.[Na+]
4: CCOC(=O)C=C(C)N[C@@H](C(=O)OC)c1ccccc1
[ask] Please order the records by their reported Peak blood concentration, lowest number first. Response format: the labels, sorted as the prompt asks.
[reply] 2, 4, 1, 3
(2: 1.8 µg/mL, 4: 3.8 µg/mL, 1: 6.1 µg/mL, 3: 14.4 µg/mL)
